Target: recombinant human KRAS^G12D protein (Homo sapiens, UniProt P01116, G12D)
Sequence (P01116 1-188 isoform P01116-2 G12D): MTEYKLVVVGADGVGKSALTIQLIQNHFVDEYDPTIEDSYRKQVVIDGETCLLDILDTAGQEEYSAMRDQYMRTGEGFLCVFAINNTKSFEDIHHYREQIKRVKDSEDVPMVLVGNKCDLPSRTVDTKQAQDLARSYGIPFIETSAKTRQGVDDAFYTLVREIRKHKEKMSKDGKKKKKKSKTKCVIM
Assay: Temperature-dependent Fluorescence (TdF) KRAS^G12D protein binding assay
Conditions: 6 μM KRAS^G12D Protein, 10 μM compound, Sypro Orange; Kd calculated from fluorescent shift
Experimental: The TdF assay was conducted in the 96-well-based real-time fluorescence plate reader (ABI 7500 or Roche LightCycler 480). Fluorescent dye Sypro Orange (Sigma) was used to monitor the protein folding-unfolding transition. […] The sample plate was heated from 30° C. to 95° C. with a thermal ramping rate of […], taking a fluorescence reading every 0.4° C. using a CY3 channel matching the excitation and emission wavelengths of Sypro Orange (λ ex 470 nm; λ em 570 nm). […]
QUANTITY: Kd

>  <STRUCTURE_SMILES_STRING>
C#Cc1c(F)ccc2cc(O)cc(-c3nc(OC)c4c(N5CC6CCC(C5)N6)nc(OC[C@@H]5CCCN5C)nc4c3F)c12

>  <Kd>
≤ 0.5 µM

$$$$
>  <STRUCTURE_SMILES_STRING>
Cc1cc2c(N3CC4CCC(C3)N4)nc(OCC34CCCN3CCC4)nc2c(=O)n1-c1cccc2ccccc12

>  <Kd>
> 5 µM

$$$$

Now consider the entry below.
response.value for CN1CCC[C@H]1COc1nc(N2CC3CCC(C2)N3)c2cc(F)c(-c3cccc4cccc(Cl)c34)nc2n1 (field: Kd) = > 5 µM

---

Assignment: determine reported GI50 for the given molecules.
molecular target: Ba/F3_KRAS^G12D cells (Homo sapiens, UniProt P01116, G12D, cells depend on it); assay: Ba/F3 KRAS^G12D cell proliferation assay (cell-titer Glo); format: cell-based; conditions: cell growth inhibition, treated with the compounds for 3 days, read-out: BaF3_KRAS^G12D IC50
Sequence (P01116 whole entry G12D): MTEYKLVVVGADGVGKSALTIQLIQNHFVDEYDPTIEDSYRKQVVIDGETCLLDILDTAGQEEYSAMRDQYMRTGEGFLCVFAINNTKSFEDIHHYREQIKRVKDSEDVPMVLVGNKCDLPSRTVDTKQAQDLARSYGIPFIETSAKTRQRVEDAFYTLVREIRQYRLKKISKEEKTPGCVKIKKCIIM

>  <MOLECULE>
CN(C)CCOc1nc(N2C3CCC2CNC3)c2cc(F)c(-c3ccccc3F)nc2c1-c1cccnc1C1CC1

>  <TARGET_ENTITY>
Ba/F3_KRAS^G12D cells (Homo sapiens, UniProt P01116, G12D, cells depend on it)

>  <QUANTITY>
GI50

>  <VALUE_REPORTED>
0.5 to 5 µM

$$$$
>  <MOLECULE>
C#Cc1c(F)ccc2cc(O)cc(-c3nc(C(F)(F)F)c4c(N5CC6CCC(C5)N6)nc(OC[C@@]56CCCN5C[C@H](F)C6)nc4c3F)c12

>  <TARGET_ENTITY>
Ba/F3_KRAS^G12D cells (Homo sapiens, UniProt P01116, G12D, cells depend on it)

>  <QUANTITY>
GI50

>  <VALUE_REPORTED>
< 0.5 µM

$$$$

List GI50 for every entry below, keeping the order given.
1. Oc1cc(-c2nc3cc(OC[C@@]45CCCN4C[C@H](F)C5)nc(N4CC5CCC(C4)N5)c3cc2Cl)c2c(Cl)cccc2c1
2. NC(=O)N1CCN(c2nc(OC[C@@]34CCCN3C[C@H](F)C4)nc3c(F)c(-c4cc(O)cc5cccc(Cl)c45)ncc23)CC1
3. COc1c(F)ccc2cc(O)cc(-c3nc(OC)c4c(N5CC6CCC(C5)N6)nc(OC[C@@]56CCCN5C[C@H](F)C6)nc4c3F)c12
4. Cc1nc(-c2cc(O)cc3cccc(Cl)c23)c(F)c2nc(OC[C@@]34CCCN3C[C@H](F)C4)nc(N3CC4CCC(C3)N4)c12
5. Oc1cc(-c2nc(Cl)c3c(N4CC5CCC(C4)N5)nc(OC[C@@]45CCCN4C[C@H](F)C5)nc3c2F)c2ccccc2c1
6. C#Cc1c(F)ccc2cc(O)cc(-c3nc(OC(C)C)c4c(N5CC6CCC(C5)N6)nc(OC[C@@H]5C[C@@H](F)CN5C)nc4c3F)c12
7. Oc1cc(-c2ncc3c(N4C5CCC4CNC5)nc(OC[C@@]45CCCN4C[C@H](F)C5)nc3c2F)c2c(Cl)cccc2c1

0.5 to 5 µM
> 5 µM
< 0.5 µM
< 0.5 µM
< 0.5 µM
< 0.5 µM
< 0.5 µM

List GI50 for every entry below, keeping the order given.
1. Nc1cccc(F)c1-c1nc2cc(OCC34CCCN3CCC4)nc(N3CC4CCC(C3)N4)c2cc1Cl
2. Clc1cccc2cccc(-c3ncc4c(N5CCNCC5)nc(OCC56CCCN5CCC6)cc4n3)c12

> 5 µM
0.5 to 5 µM

List GI50 for every entry below, keeping the order given.
1. CCN1CCC(c2nc(OCC34CCCN3CCC4)nc3c(F)c(-c4cc(O)cc5cccc(Cl)c45)ncc23)CC1
2. C#Cc1c(F)ccc2cc(O)cc(-c3nc(OC(C)C)c4c(N5CC6CCC(C5)N6)nc(OCC5(CN6CCN(C)CC6)CC5)nc4c3F)c12
3. Oc1cc(-c2ncc3c(C4CC5CCC(C4)N5)nc(OC[C@@]45CCCN4C[C@H](F)C5)nc3c2F)c2c(Cl)cccc2c1 (some centres unmarked)

["0.5 to 5 µM", "< 0.5 µM", "> 5 µM"]

---

biological target: Ba/F3_KRAS^G12D cells (Homo sapiens, UniProt P01116, G12D, cells depend on it); experiment: Ba/F3 KRAS^G12D cell proliferation assay (cell-titer Glo); format: cell-based; conditions: cell growth inhibition, treated with the compounds for 3 days, read-out: BaF3_KRAS^G12D IC50
Assignment: determine reported GI50 for the given molecules.

>  <STRUCTURE_SMILES_STRING>
CCc1c(F)ccc2cc(N)cc(-c3nc(OC)c4c(N5CC6CCC(C5)N6)nc(OC[C@@]56CCCN5C[C@H](F)C6)nc4c3F)c12

>  <TARGET_ENTITY>
Ba/F3_KRAS^G12D cells (Homo sapiens, UniProt P01116, G12D, cells depend on it)

>  <VALUE_REPORTED>
< 500 nM

$$$$
>  <STRUCTURE_SMILES_STRING>
C#Cc1c(F)ccc2cc(O)cc(-c3nc(OCC)c4c(N5CCNC6(CCC6)C5)nc(OC[C@@]56CCCN5C[C@H](F)C6)nc4c3F)c12

>  <TARGET_ENTITY>
Ba/F3_KRAS^G12D cells (Homo sapiens, UniProt P01116, G12D, cells depend on it)

>  <VALUE_REPORTED>
< 500 nM

$$$$
>  <STRUCTURE_SMILES_STRING>
Oc1cc(-c2ncc3c(N4CC5CCC(C4)N5)nc(OCC45CCCN4CCC5)c(Cl)c3n2)c2c(Cl)cccc2c1

>  <TARGET_ENTITY>
Ba/F3_KRAS^G12D cells (Homo sapiens, UniProt P01116, G12D, cells depend on it)

>  <VALUE_REPORTED>
> 5000 nM

$$$$
>  <STRUCTURE_SMILES_STRING>
C#Cc1c(F)ccc2cccc(-c3nc(OC(C)C)c4c(N5CC6CCC(C5)N6)nc(OC[C@]56CCCN5[C@@H](COC(=O)N(C)C)CC6)nc4c3F)c12

>  <TARGET_ENTITY>
Ba/F3_KRAS^G12D cells (Homo sapiens, UniProt P01116, G12D, cells depend on it)

>  <VALUE_REPORTED>
< 500 nM

$$$$

List GI50 for every entry below, keeping the order given.
1. C#Cc1c(F)ccc2cc(O)cc(-c3nc(OC(C)C)c4c(N5CC6CCC(C5)N6)nc(OC[C@@H]5C[C@@H](OC(=O)N(C)C)CN5C)nc4c3F)c12
2. C#Cc1c(F)ccc2cc(O)cc(-c3nc(C(F)F)c4c(N5CC6CCC(C5)N6)nc(OC[C@@]56CCCN5C[C@H](F)C6)nc4c3F)c12

1. < 500 nM
2. < 500 nM

---

Assignment: determine reported Kd for the given compounds.
Target: recombinant human KRAS^G12D protein (Homo sapiens, UniProt P01116, G12D)
Assay: Temperature-dependent Fluorescence (TdF) KRAS^G12D protein binding assay
Details: 6 μM KRAS^G12D Protein, 10 μM compound, Sypro Orange; Kd calculated from fluorescent shift
Procedure: The TdF assay was conducted in the 96-well-based real-time fluorescence plate reader (ABI 7500 or Roche LightCycler 480). Fluorescent dye Sypro Orange (Sigma) was used to monitor the protein folding-unfolding transition. […] The sample plate was heated from 30° C. to 95° C. with a thermal ramping rate of […], taking a fluorescence reading every 0.4° C. using a CY3 channel matching the excitation and emission wavelengths of Sypro Orange (λ ex 470 nm; λ em 570 nm). […]

In the examples that follow, each entry is paired with its recorded Kd.
>  <COMPOUND>
O=c1c2nc(OCC34CCCN3CCC4)nc(N3CC4CCC(C3)N4)c2ccn1-c1cccc2ccccc12 [Compound 108]

>  <Kd>
> 5 µM

$$$$
>  <COMPOUND>
Cc1nc(-c2cc(O)cc3cccc(Cl)c23)c(F)c2nc(OC[C@@]34CCCN3C[C@H](F)C4)nc(N3CC4CCC(C3)N4C)c12 [Compound 90]

>  <Kd>
0.5 to 5 µM

$$$$
>  <COMPOUND>
C#Cc1c(F)ccc2cc(O)cc(-c3nc(C)c4c(N5CC6CCC(C5)N6)nc(OC[C@@]56CCCN5C[C@H](F)C6)nc4c3Cl)c12 [Compound 134]

>  <Kd>
≤ 0.5 µM

$$$$

List Kd for every entry below, keeping the order given.
1. Oc1cc(-c2nc(Cl)c3c(N4CC5CCC(C4)N5)nc(OC[C@@]45CCCN4C[C@H](F)C5)nc3c2F)c2c(Cl)cccc2c1 [Compound 114]
2. Clc1cccc2cccc(-c3nc(OCC45CCCN4CCC5)c4ccc(N5CCNCC5)nc4c3Br)c12 [Compound 83]

["≤ 0.5 µM", "> 5 µM"]

List Kd for every entry below, keeping the order given.
1. CCOc1nc(-c2cc(O)cc3ccc(F)c(Cl)c23)c(F)c2nc(OC[C@@]34CCCN3C[C@H](F)C4)nc(N3CC4CCC(C3)N4)c12 [Compound 173]
2. CN(C)CCCOc1nc(N2CC3CCC(C2)N3)c2cc(F)c(-c3cccc4cccc(Cl)c34)nc2n1 [Compound 15]
3. N#Cc1c(-c2cccc3cccc(Cl)c23)nc(OCC23CCCN2CCC3)c2ccc(N3CCNCC3)nc12 [Compound 98]
4. Oc1cc(-c2ncc3c(N4CC5CCC(C4)N5)nc(OC[C@@]45CCCN4C[C@H](F)C5)c(Cl)c3n2)c2c(Cl)c(F)ccc2c1 [Compound 75]
5. Oc1cc(-c2ncc3c(N4CC5CCC(C4)N5)nc(OC[C@@]45CCCN4C[C@H](F)C5)nc3c2F)c2c(Cl)cccc2c1 [Compound 36]

["≤ 0.5 µM", "> 5 µM", "> 5 µM", "≤ 0.5 µM", "≤ 0.5 µM"]

List Kd for every entry below, keeping the order given.
1. CCN1CCC(c2nc(OCC34CCCN3CCC4)nc3c(F)c(-c4cc(O)cc5cccc(Cl)c45)ncc23)CC1 [Compound 56]
2. CN1CCC[C@H]1Cn1c(=O)nc(N2CC3CCC(C2)N3)c2cnc(-c3cccc4cccc(Cl)c34)c(F)c21 [Compound 33]

1. > 5 µM
2. > 5 µM

List Kd for every entry below, keeping the order given.
1. Clc1cc2c(N3CCNCC3)nc(OCC34CCCN3CCC4)nc2nc1-c1cccc2ccccc12 [Compound 3]
2. CCN1CCN(c2nc(OCC34CCCN3CCC4)nc3c(F)c(-c4cc(O)cc5cccc(Cl)c45)ncc23)CC1 [Compound 42]
3. Cc1nc(-c2cc(O)cc3cccc(C#N)c23)c(F)c2nc(OC[C@@]34CCCN3C[C@H](F)C4)nc(N3CC4CCC(C3)N4)c12 [Compound 115]
4. Oc1cc(-c2ncc3c(N4CC5CCC(C4)N5)nc(OCC45CCCN4CCC5)c(Cl)c3n2)c2c(Cl)cccc2c1 [Compound 65]
5. Cc1nc(-c2cc(O)cc3cccc(Cl)c23)c(F)c2nc(OC[C@@]34CCCN3C[C@H](F)C4)nc(N3CC4CCC(C3)N4)c12 [Compound 89]
6. N#Cc1cc2c(N3CC4CCC(C3)N4)nc(OC[C@@]34CCCN3C[C@H](F)C4)nc2nc1-c1cc(O)cc2ccccc12 [Compound 60]
7. C#Cc1c(F)ccc2cc(O)cc(-c3nc(OC)c4c(N5CC6CCC(C5)N6)nc(OC[C@@]56CCCN5C[C@H](F)C6)nc4c3F)c12 [Compound 135]

["> 5 µM", "> 5 µM", "≤ 0.5 µM", "0.5 to 5 µM", "≤ 0.5 µM", "> 5 µM", "≤ 0.5 µM"]

List Kd for every entry below, keeping the order given.
1. Nc1cccc(F)c1-c1nc2cc(OCC34CCCN3CCC4)nc(N3CC4CCC(C3)N4)c2cc1Cl [Compound 37]
2. Oc1cc(-c2cc3nc(OC[C@@]45CCCN4C[C@H](F)C5)nc(N4CC5CCC(C4)N5)c3nn2)c2ccccc2c1 [Compound 84]

> 5 µM
0.5 to 5 µM
